# measurementProtocol: Therapeutic index, ratio of CC50 for inhibition of colony formation in human HSF cells to IC50 for inhibition of colony formation in ER and PR-positive human MCF7 cells
# Format: toxicity, cell-based
# experimentalParameters: read-out: Ratio CC50/IC50
propertyName: selectivity ratio
Numbers only.

Check out these entries, answers already filled in.
1. COc1ccc(/C=C/c2nc(C)c3c(c2C)COC(C)(C)O3)cc1OC | 4.7
2. CC/C(=C(\c1ccccc1)c1ccc(OCCN(C)C)cc1)c1ccccc1 | 2

// fetch selectivity ratio given entry O=C(c1ccc(OCCN2CCCCC2)cc1)c1c(-c2ccc(O)cc2)sc2cc(O)ccc12
5.8
